# assayedTarget: Bromodomain testis-specific protein (Homo sapiens)
# protocolDetails: Binding affinity to 5FW-labeled BRDT bromodomain 1 W50 residue (unknown origin) expressed in Escherichia coli BL21(DE3) by PrOF NMR spectroscopic analysis
measurementType: Kd

GET /values?readout=Kd&item= `CCn1c(N)cc(=O)[nH]c1=O`
1500 µM

* * *

# assayedTarget: Bromodomain-containing protein 4 (Homo sapiens)
# protocolDetails: Inhibition of BI-BODIPY binding to BRD4 bromodomain 1 (42 to 168 residues)(unknown origin) expressed in Escherichia coli BL21(DE3) by fluorescence anisotropy assay
// reported IC50 for each item listed

GET /values?readout=IC50&item= CCn1c2c(c(=O)[nH]c1=O)C(c1ccc(C)cc1)C1=C(CN(CCc3ccccc3)C1=O)N2 (stereo not given)
1000 nM

* * *

# assayedTarget: Bromodomain testis-specific protein (Homo sapiens, UniProt Q58F21)
# protocolDetails: Inhibition of BI-BODIPY binding to BRDT bromodomain 1 (29 to 134 residues) (unknown origin) expressed in Escherichia coli BL21(DE3) by fluorescence anisotropy assay
Criterion: IC50 strictly less than 70 µM. Met: label 1. Not met: label 0.

CCCN1C(=O)c2c[nH]c(C)c2C1c1cc(OC)ccc1OC (stereo not given) | label 1
O=c1[nH]c(=O)n(CC2CCCO2)c2nccc(-c3ccco3)c12 (stereo not given) | label 0
C=CCN1CC2=C(C1=O)C(c1ccc(C)cc1)c1c(n(CC)c(=O)[nH]c1=O)N2 (stereo not given) | label 1

Now, please, on to the next compound.
Here's an entry: `O=c1[nH]c(=O)c2c([nH]1)[nH]/c(=N/CCO)n2Cc1cccc2ccccc12` . Is its IC50 below 70 µM?
label 0

* * *

# assayedTarget: Bromodomain testis-specific protein (Homo sapiens)
# protocolDetails: Inhibition of BI-BODIPY binding to BRDT bromodomain 1 (29 to 134 residues) (unknown origin) expressed in Escherichia coli BL21(DE3) by fluorescence anisotropy assay
Criterion: Ki strictly less than 1000 nM. Met: rule met. Not met: rule not met.

CCCn1c2c(c(=O)[nH]c1=O)C(c1ccccc1)C1=C(COC1=O)N2 (centres undefined) | rule not met
CCn1c2c(c(=O)[nH]c1=O)C(c1ccc(C(F)(F)F)cc1)C1=C(COC1=O)N2 (centres undefined) | rule not met
CCn1c2c(c(=O)[nH]c1=O)C(c1ccc(C)cc1)C1=C(CCC1=O)N2 (centres undefined) | rule not met

Now, please, on to the next molecule.
Here's an entry: CCn1c2c(c(=O)[nH]c1=O)C(c1ccc(Cl)cc1)C1=C(COC1=O)N2 (centres undefined) . Is its Ki below 1000 nM?
rule not met

* * *

# assayedTarget: Nucleosome-remodeling factor subunit BPTF (Homo sapiens)
# protocolDetails: Binding affinity to 5FW-labeled BPTF (unknown origin) by PrOF NMR spectroscopic analysis
measurementType: Kd (mM)
Give just the number in mM; leave the unit off.

GET /values?readout=Kd&item= `CCn1c(N)cc(=O)[nH]c1=O`
6.8

* * *

# assayedTarget: Bromodomain testis-specific protein (Homo sapiens, UniProt Q58F21)
# protocolDetails: Binding affinity to human BRDT bromodomain 1 (21 to 137 residues) expressed in bacterial expression system by q-PCR-based bromoscan assay
measurementType: Kd
Answer with the figure and its unit, nothing else.

GET /values?readout=Kd&item= CCn1c2c(c(=O)[nH]c1=O)C(c1ccc(C)cc1)C1=C(COC1=O)N2 (stereo unspecified)
1600 nM

* * *

# assayedTarget: Bromodomain testis-specific protein (Homo sapiens)
# protocolDetails: Binding affinity to 5FW-labeled BRDT bromodomain 1 residue (unknown origin) expressed in Escherichia coli BL21(DE3) by PrOF NMR spectroscopic analysis
measurementType: Kd (µM)
Give just the number in µM; leave the unit off.

Bromodomain testis-specific protein (Homo sapiens) / Kd / `CCn1c(N)cc(=O)[nH]c1=O` : value?
1500

* * *

# assayedTarget: Bromodomain-containing protein 4 (Homo sapiens, UniProt O60885)
# protocolDetails: Inhibition of BI-BODIPY binding to BRD4 bromodomain 1 (42 to 168 residues)(unknown origin) expressed in Escherichia coli BL21(DE3) by fluorescence anisotropy assay
pKi: −log10 of the molar value.
Given measured pKi, output TRUE if it is greater than or equal to 6 and FALSE if not.

Here are 6 compounds together with their reported answers.
CCn1c(=O)[nH]c(=O)c2c(-c3ccc(C)cc3)c3c(nc21)COC3=O | FALSE
C=CCN1CC2=C(C1=O)C(c1ccc(C)cc1)c1c(n(CC)c(=O)[nH]c1=O)N2 (centres undefined) | FALSE
CCn1c2c(c(=O)[nH]c1=O)C(c1ccc(C)cc1)C1=C(CN(CCc3ccc(O)cc3)C1=O)N2 (centres undefined) | TRUE
CCn1c2c(c(=O)[nH]c1=O)C(c1ccc(C)cc1)C1=C(CCC1=O)N2 (centres undefined) | FALSE
CCn1c2c(c(=O)[nH]c1=O)C(c1ccc(C)cc1)C1=C(CN(CCc3ccccc3)C1=O)N2 (centres undefined) | TRUE
CCn1c2c(c(=O)[nH]c1=O)C(c1ccc(C)cc1)C1=C(CN(C)C1=O)N2 (centres undefined) | FALSE

Now, please, on to the next compound.
Quick check: does CCn1c2c(c(=O)n(C)c1=O)C(c1ccc(C)cc1)C1=C(COC1=O)N2 (centres undefined) have pKi greater than or equal to 6?
FALSE

* * *

# assayedTarget: Bromodomain-containing protein 4 (Homo sapiens, UniProt O60885)
# protocolDetails: Inhibition of biotin-labeled (+)-JQ1 binding to His-tagged BRD4 bromodomain 1 (42 to 168 residues) (unknown origin) expressed in Escherichia coli BL21(DE3) after 1 hr by alpha screen assay
measurementType: pIC50
Reminder that pIC50 is minus the log10 of a molar concentration.

GET /values?readout=pIC50&item= CCn1c2c(c(=O)[nH]c1=O)C(c1ccc(C)cc1)C1=C(COC1=O)N2 (stereo unspecified)
6.00

* * *

# assayedTarget: Bromodomain-containing protein 4 (Homo sapiens)
# protocolDetails: Inhibition of acetylated histone4 (1 to 21 residues) binding to His-tagged BRD4 bromodomain 1 (42 to 168 residues) (unknown origin) expressed in Escherichia coli BL21(DE3) after 1 hr by alpha screen assay
measurementType: pIC50
Reminder that pIC50 is minus the log10 of a molar concentration.

Bromodomain-containing protein 4 (Homo sapiens) / pIC50 / CCn1c2c(c(=O)[nH]c1=O)C(c1ccc(C)cc1)C1=C(COC1=O)N2 (stereo unspecified) : value?
6.05

* * *

# assayedTarget: Bromodomain testis-specific protein (Homo sapiens)
# protocolDetails: Inhibition of BI-BODIPY binding to BRDT bromodomain 1 (29 to 134 residues) (unknown origin) expressed in Escherichia coli BL21(DE3) by fluorescence anisotropy assay
measurementType: Ki (nM)
Give just the number in nM; leave the unit off.

GET /values?readout=Ki&item= CCn1c2c(c(=O)[nH]c1=O)C(c1ccc(C)cc1)C1=C(CN(CCc3ccccc3)C1=O)N2 (stereo not given)
220

Next entry: CCn1c2c(c(=O)[nH]c1=O)C(c1ccccc1)C1=C(COC1=O)N2 (stereo not given)
1400

* * *

# assayedTarget: Bromodomain testis-specific protein (Homo sapiens, UniProt Q58F21)
# protocolDetails: Inhibition of BRDT bromodomain 2 (unknown origin) by fluorescence anisotropy assay
pKi: −log10 of the molar value.
measurementType: pKi

Cc1ccc(C2C3=C(COC3=O)Nc3c2c(=O)[nH]c(=O)n3CC(F)(F)F)cc1 (configuration not stated) | ≥ 6.35

Now examine the next entry.
GET /values?readout=pKi&item= CCn1c2c(c(=O)[nH]c1=O)C(c1ccc(C)cc1)C1=C(COC1=O)N2 (configuration not stated)
≥ 6.35

* * *

# assayedTarget: Bromodomain testis-specific protein (Homo sapiens, UniProt Q58F21)
# protocolDetails: Inhibition of BI-BODIPY binding to BRDT bromodomain 1 (29 to 134 residues) (unknown origin) expressed in Escherichia coli BL21(DE3) by fluorescence anisotropy assay
measurementType: pKi
Reminder that pKi is minus the log10 of a molar concentration.

CCn1c2c(c(=O)[nH]c1=O)C(c1ccc(C)cc1)C1=C(COC1=O)N2 (stereo not given) | 6.16
CCn1c2c(c(=O)[nH]c1=O)C(c1ccc(C)cc1)C1=C(CN(Cc3ccccc3)C1=O)N2 (stereo not given) | 6.64
CCn1c2c(c(=O)[nH]c1=O)C(c1ccc(C)cc1)C1=C(CN(C)C1=O)N2 (stereo not given) | 5.25

Now examine the next entry.
Bromodomain testis-specific protein (Homo sapiens, UniProt Q58F21) / pKi / CCn1c2c(c(=O)[nH]c1=O)C(c1ccc(C)cc1)C1=C(CN(CCc3ccc(O)cc3)C1=O)N2 (stereo not given) : value?
6.70

* * *

# assayedTarget: Bromodomain-containing protein 4 (Homo sapiens)
# protocolDetails: Inhibition of BI-BODIPY binding to BRD4 bromodomain 1 (42 to 168 residues)(unknown origin) expressed in Escherichia coli BL21(DE3) by fluorescence anisotropy assay
// reported pKi for each item listed
Reminder that pKi is minus the log10 of a molar concentration.

Cc1ccc(C2C3=C(COC3=O)Nc3c2c(=O)[nH]c(=O)n3CC(F)(F)F)cc1 (configuration not stated) | 6.80
CCn1c2c(c(=O)[nH]c1=O)C(c1ccc(Cl)cc1)C1=C(COC1=O)N2 (configuration not stated) | 6.52
CCn1c2c(c(=O)[nH]c1=O)C(c1ccccc1)C1=C(COC1=O)N2 (configuration not stated) | 6.46
CCn1c2c(c(=O)[nH]c1=O)C(c1ccc(C)cc1)C1=C(CN(CCc3ccc(OC)cc3)C1=O)N2 (configuration not stated) | 7.00
CCn1c2c(c(=O)[nH]c1=O)C(c1ccc(C)cc1)C1=C(CN(Cc3ccccc3)C1=O)N2 (configuration not stated) | 6.72

GET /values?readout=pKi&item= CCn1c2c(c(=O)[nH]c1=O)C(c1ccc(C)cc1)C1=C(COC1=O)N2 (configuration not stated)
6.43
